Data origin, for the record: patent US5814627A

The reader will find reported inhibition in vivo at 50 mg/kg values listed item by item below.
tested on: adjuvant/arthritis model; assay: Test 6: antiarthritic effect in the adjuvant/arthritis model; assay type: in vivo, rat (Wistar-Lewis); conditions: Rattus norvegicus, po, 408 h, 50 mg/kg orally, daily for 17 days; rat; read-out: Test 6 Paw volume (% inhibition)
Where a name gives a salt, the structure may show the parent alone.
measure-name: inhibition in vivo at 50 mg/kg (%)

CC(=O)C1CC(c2cc(C(C)(C)C)c(O)c(C(C)(C)C)c2)=NO1 (centres unmarked) :: 84
CC(OC(=O)[C@@H](N)Cc1ccccc1)C1CC(c2cc(C(C)(C)C)c(O)c(C(C)(C)C)c2)=NO1 (some centres unmarked) [Example 73, hydrochloride] :: 73
CC(C)(C)c1cc(-c2cc(CCO)on2)cc(C(C)(C)C)c1O :: 44
CC(C)(C)c1cc(-c2cc(CN)on2)cc(C(C)(C)C)c1O :: 60
C[C@@H](OC(=O)CN)[C@@H]1CC(c2cc(C(C)(C)C)c(O)c(C(C)(C)C)c2)=NO1 (relative stereo) [Example 77, hydrochloride] :: 82
CC(C)(C)c1cc(C2=NO[C@H]([C@H](O)CO)C2)cc(C(C)(C)C)c1O (relative stereo) :: 36
CC(C)(C)c1cc(C2=NOC3(CCC3)C2)cc(C(C)(C)C)c1O :: 53
CC(C)(C)c1cc(-c2cc(CNC(=O)[C@H](O)[C@@H](O)C(=O)O)on2)cc(C(C)(C)C)c1O :: 39
